These measurements were taken from paper PMC4314249.

Kindly supply the reported Relative potency values for the records listed here.
# study-system: human PPARγ ligand-binding domain (Homo sapiens, UniProt P37231)
# Construct: The kit uses the human-derived recombinant PPARγ LBD tagged with an N-terminal GST-tag; purchased Invitrogen
# Sequence (P37231 238-503 limits assumed): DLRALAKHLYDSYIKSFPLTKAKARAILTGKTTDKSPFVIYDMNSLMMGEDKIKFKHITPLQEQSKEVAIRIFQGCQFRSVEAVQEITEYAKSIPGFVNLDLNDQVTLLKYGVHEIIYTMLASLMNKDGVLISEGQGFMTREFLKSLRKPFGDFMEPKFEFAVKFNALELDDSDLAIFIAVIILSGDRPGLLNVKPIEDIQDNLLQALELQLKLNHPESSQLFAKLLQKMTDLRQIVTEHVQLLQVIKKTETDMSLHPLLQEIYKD
# method-notes: PolarScreen PPARγ-Competitor fluorescence polarization ligand binding assay
Answer as a number with no unit attached.

Would you mind telling me what Relative potency value was observed for Oc1cc(Oc2ccc(Br)cc2Br)c(Br)cc1Br ?
0.0744

Another molecule to check: O=P(Oc1ccccc1)(Oc1ccccc1)Oc1ccccc1 [TPP, triphenyl phosphate]
0.0058

Another molecule to check: O=P(O)(Oc1ccccc1)Oc1ccccc1 [DPP, diphenyl phosphate]
0.0004

Another molecule to check: Oc1c(I)cc(I)cc1I
0.1250

Another molecule to check: CCCCOCCOP(=O)(OCCOCCCC)OCCOCCCC [TBEP, tris(2-butoxyethyl) phosphate]
0.0022

Another molecule to check: Oc1c(Cl)cc(Cl)cc1Cl
0.0023

Another molecule to check: CC(C)(c1cc(Cl)c(O)c(Cl)c1)c1cc(Cl)c(O)c(Cl)c1
0.0444

Another molecule to check: [Cl][Sn]([c]1ccccc1)([c]1ccccc1)[c]1ccccc1 [TPT, triphenyltin chloride]
0.1337

Another molecule to check: Oc1c(Br)ccc(Oc2ccc(Br)cc2Br)c1Br
0.9583

Another molecule to check: Oc1cc(Oc2cc(Br)c(Br)cc2Br)c(Br)cc1Br
0.0077

Another molecule to check: Oc1cc(Cl)ccc1Oc1ccc(Cl)cc1Cl
0.0184

Another molecule to check: Oc1c(Br)cc(Br)cc1Br
0.0063

Another molecule to check: O=C(O)c1cc(Br)c(Br)c(Br)c1Br
0.0055
